biological target: JAK1 (Homo sapiens (Human)); test: Analysis of JAK1 activity inhibition ability (ADP-Glo Kinase Assay); format: biochemical; settings: JAK1 enzyme, ADP-Glo luminescence, ATP 250 uM, IRS-itide substrate, 30° C. 40 minutes; read-out: IC50
ENDPOINT: IC50

Cc1ncc(C(=O)N2CC=C(c3cc(NC(=O)C4CC4)nc4[nH]ccc34)C(C)C2)s1 (stereo not shown) [Example 306] ... 20 to 200 nM
N#CCCn1ccc(-c2cc(NC(=O)C3CC3)nc3[nH]ccc23)c1 [Example 483] ... < 20 nM
CCCS(=O)(=O)Nc1ccc(-c2cc(NC(=O)C3CC3)nc3[nH]ccc23)cc1C [Example 65] ... < 20 nM

Exercise: Quote JAK1 (Homo sapiens (Human)) IC50 for entry CCCNC(=S)Nc1ccc(-c2nc(NC(=O)C3CC3)nc3[nH]ccc23)cc1 [Example 467] .
Key: 20 to 200 nM

Exercise: Quote JAK1 (Homo sapiens (Human)) IC50 for entry CC1CN(C(=O)c2ccc(NCCN3CCOCC3)c(F)c2)CC=C1c1cc(NC(=O)C2CC2)nc2[nH]ccc12 (stereo not shown) [Example 323] .
Key: > 200 nM

Exercise: Quote JAK1 (Homo sapiens (Human)) IC50 for entry O=C(Nc1cc(C2=CCC(NC3CN(C(=O)c4cc(F)cc(F)c4)C3)CC2)c2cc[nH]c2n1)C1CC1 (stereo not shown) [Example 495] .
Key: 20 to 200 nM

====

Recorded IC50 values for a group of compounds are listed next.
target: JAK1 (Homo sapiens (Human), UniProt P23458); experiment: Analysis of JAK1 activity inhibition ability (ADP-Glo Kinase Assay); format: biochemical; settings: JAK1 enzyme, ADP-Glo luminescence, ATP 250 uM, IRS-itide substrate, 30° C. 40 minutes; read-out: IC50
Sequence (P23458 whole entry): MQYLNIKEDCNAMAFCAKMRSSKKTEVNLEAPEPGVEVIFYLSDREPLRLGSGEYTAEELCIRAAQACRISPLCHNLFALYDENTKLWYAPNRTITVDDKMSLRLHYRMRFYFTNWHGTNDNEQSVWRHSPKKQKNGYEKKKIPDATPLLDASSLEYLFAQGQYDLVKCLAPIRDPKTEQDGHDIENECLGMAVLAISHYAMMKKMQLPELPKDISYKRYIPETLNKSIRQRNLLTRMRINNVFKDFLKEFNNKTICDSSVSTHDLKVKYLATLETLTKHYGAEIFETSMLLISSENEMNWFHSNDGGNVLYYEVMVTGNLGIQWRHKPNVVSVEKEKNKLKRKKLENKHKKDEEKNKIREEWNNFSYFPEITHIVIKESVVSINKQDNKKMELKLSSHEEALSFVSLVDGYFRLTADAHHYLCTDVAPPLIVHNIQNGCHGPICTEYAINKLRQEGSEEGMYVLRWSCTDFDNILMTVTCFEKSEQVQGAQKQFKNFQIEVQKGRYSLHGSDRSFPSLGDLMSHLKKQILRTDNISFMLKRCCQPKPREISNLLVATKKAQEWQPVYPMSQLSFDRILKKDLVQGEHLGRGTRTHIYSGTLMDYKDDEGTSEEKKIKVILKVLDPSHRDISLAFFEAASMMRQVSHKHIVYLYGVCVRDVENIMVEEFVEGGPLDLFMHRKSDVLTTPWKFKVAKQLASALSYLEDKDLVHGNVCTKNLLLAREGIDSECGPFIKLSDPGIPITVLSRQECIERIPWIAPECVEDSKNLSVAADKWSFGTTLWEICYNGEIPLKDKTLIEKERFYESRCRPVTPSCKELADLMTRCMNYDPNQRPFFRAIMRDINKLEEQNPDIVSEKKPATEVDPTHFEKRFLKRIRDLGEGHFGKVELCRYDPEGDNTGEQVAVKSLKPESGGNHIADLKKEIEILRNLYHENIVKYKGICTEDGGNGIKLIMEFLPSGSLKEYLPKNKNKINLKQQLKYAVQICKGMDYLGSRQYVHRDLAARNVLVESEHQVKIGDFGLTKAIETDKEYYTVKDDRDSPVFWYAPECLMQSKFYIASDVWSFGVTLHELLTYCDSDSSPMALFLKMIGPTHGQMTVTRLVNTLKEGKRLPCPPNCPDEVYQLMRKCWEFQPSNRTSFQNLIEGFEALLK

N#CCC(=O)N1C=C(c2cc(NC(=O)C3CC3)nc3[nH]ccc23)CCC1 [Example 419] ... > 200 nM
O=C(Nc1nc(-c2ccc(NS(=O)(=O)c3ccc(F)c(F)c3)cc2)c2cc[nH]c2n1)C1CC1 [Example 181] ... < 20 nM
O=C(Nc1cc(C2=CCN(C(=O)c3cnoc3)CC2)c2cc[nH]c2n1)C1CC1 [Example 287] ... 20 to 200 nM
CC(C)(C#N)CCS(=O)(=O)Nc1ccc(-c2cc(NC(=O)C3CC3)nc3[nH]ccc23)cc1F [Example 87] ... 20 to 200 nM
CC1CN(C(=O)C2(C#N)CCCC2)CC=C1c1cc(NC(=O)C2CC2)nc2[nH]ccc12 (centres unmarked) [Example 361] ... 20 to 200 nM
O=C(Nc1cc(C2=CCC(NC3CCN(C(=O)c4ccc([N+](=O)[O-])cc4)CC3)CC2)c2cc[nH]c2n1)C1CC1 (centres unmarked) [Example 494] ... > 200 nM
O=C(Nc1cc(C2CC3CCC(C2)N3S(=O)(=O)C2CC2)c2cc[nH]c2n1)C1CC1 (centres unmarked) [Example 647] ... > 200 nM
Cc1cnc(C(=O)N2CC=C(c3cc(NC(=O)C4CC4)nc4[nH]ccc34)C(C)C2)cn1 (centres unmarked) [Example 344] ... > 200 nM
O=C(Nc1cc(-c2cnn(C3CN(S(=O)(=O)c4ccc(F)c(F)c4)C3)c2)c2cc[nH]c2n1)C1CC1 [Example 605] ... 20 to 200 nM
CCc1cc(-c2cc(NC(=O)C3CC3)nc3[nH]ccc23)ccc1NS(=O)(=O)CC [Example 124] ... < 20 nM

Exercise: State its IC50: O=C(Nc1nc(-c2ccc(NS(=O)(=O)C3CCCCC3)cc2)c2cc[nH]c2n1)C1CC1 [Example 183]
Key: < 20 nM

Exercise: State its IC50: N#CCC(=O)N1CCC=C(c2cc(NC(=O)C3CC3)nc3[nH]ccc23)C1 [Example 420]
Key: 20 to 200 nM

Exercise: State its IC50: O=C(Nc1nc(-c2ccc(NS(=O)(=O)c3ccc(F)c(F)c3)cc2)c2nc[nH]c2n1)C1CC1 [Example 208]
Key: > 200 nM

Exercise: State its IC50: O=C(NC1CC=C(c2cc(NC(=O)C3CC3)nc3[nH]ccc23)CC1)c1ccccc1 (centres unmarked) [Example 243]
Key: 20 to 200 nM

====

target: JAK1 (Homo sapiens (Human)); test: Analysis of JAK1 activity inhibition ability (ADP-Glo Kinase Assay); format: biochemical; details: JAK1 enzyme, ADP-Glo luminescence, ATP 250 uM, IRS-itide substrate, 30° C. 40 minutes; read-out: IC50
ENDPOINT: IC50

Use the examples below as a reference point.
N#CCC(=O)N1C[C@@H]2C[C@H]1CN2c1cc(NC(=O)C2CC2)nc2[nH]ccc12 [Example 679] ... > 200 nM
CC(C)(C)OC(=O)N1C2CCC1CN(c1nc(NC(=O)C3CC3)nc3[nH]ccc13)C2 [Example 695] ... 20 to 200 nM

Now for the molecule whose IC50 we want.
Exercise: Quote JAK1 (Homo sapiens (Human)) IC50 for entry C[C@@H]1CN(C(=O)c2ccnc(F)c2)CC=C1c1cc(NC(=O)C2CC2)nc2[nH]ccc12 [Example 395] .
Key: < 20 nM

====

biological target: JAK1 (Homo sapiens (Human)); test: Analysis of JAK1 activity inhibition ability (ADP-Glo Kinase Assay); assay type: biochemical; settings: JAK1 enzyme, ADP-Glo luminescence, ATP 250 uM, IRS-itide substrate, 30° C. 40 minutes; read-out: IC50
Recorded IC50 values for a group of compounds are listed next.

Exercise: State its IC50: `N#CCC(=O)N1[C@@H]2CC[C@H]1C=C(c1cc(NC(=O)C3CC3)nc3[nH]ccc13)C2`
Key: 20 to 200 nM

Exercise: State its IC50: `Cn1cc(S(=O)(=O)Nc2ccc(-c3cc(NC(=O)C4CC4)nc4[nH]ccc34)cc2)cn1`
Key: 20 to 200 nM

Exercise: State its IC50: `C[C@@H]1CN(C(=O)c2ccc([N+](=O)[O-])cc2)CC=C1c1cc(NC(=O)C2CC2)nc2[nH]ccc12`
Key: < 20 nM

Exercise: State its IC50: `N#CC1(CS(=O)(=O)N2CCN(c3cc(NC(=O)C4CC4)nc4[nH]ccc34)CC2)CC1`
Key: > 200 nM

Exercise: State its IC50: COc1cc(C(=O)N2CC(NC3CC=C(c4cc(NC(=O)C5CC5)nc5[nH]ccc45)CC3)C2)ccn1 (stereo not shown)
Key: 20 to 200 nM

Exercise: State its IC50: `N#CCC1(N2CC=C(c3cc(NC(=O)C4CC4)nc4[nH]ccc34)CC2)CN(C(=O)CC(F)(F)F)C1`
Key: 20 to 200 nM

Exercise: State its IC50: CCC1CN(C(=O)CC#N)CC=C1c1cc(NC(=O)C2CC2)nc2[nH]ccc12 (stereo not shown)
Key: < 20 nM

====

Recorded pIC50 values for a group of molecules are listed next.
biological target: JAK1 (Homo sapiens (Human)); assay: Analysis of JAK1 activity inhibition ability (ADP-Glo Kinase Assay); format: biochemical; settings: JAK1 enzyme, ADP-Glo luminescence, ATP 250 uM, IRS-itide substrate, 30° C. 40 minutes; read-out: IC50
pIC50: −log10 of the molar value.

Use the examples below as a reference point.
CCCCS(=O)(=O)N1CC(n2cc(-c3cc(NC(=O)C4CC4)nc4[nH]ccc34)cn2)C1 ... < 6.70
CCS(=O)(=O)Nc1ccc(-c2cc(NC(C)=O)nc3[nH]ccc23)cc1F ... 6.70 to 7.70
N#CC1(C(=O)N2CC=C(c3cc(NC(=O)C4CC4)nc4[nH]ccc34)CC2)CC1 ... < 6.70
O=C(Nc1cc(-c2ccc(CC(=O)N3CCCCC3)cc2)c2cc[nH]c2n1)C1CC1 ... 6.70 to 7.70
CN1CCC(C(=O)N2CC=C(c3cc(NC(=O)C4CC4)nc4[nH]ccc34)CC2)C1 (stereo not drawn) ... < 6.70

Exercise: Quote JAK1 (Homo sapiens (Human)) pIC50 for entry `CCCS(=O)(=O)NCc1ccc(-c2cc(NC(=O)C3CC3)nc3[nH]ccc23)cc1` .
Key: 6.70 to 7.70

Exercise: Quote JAK1 (Homo sapiens (Human)) pIC50 for entry `N#CCCCS(=O)(=O)Nc1ccc(-c2cc(NC(=O)C3CC3)nc3[nH]ccc23)cc1` .
Key: > 7.70

Exercise: Quote JAK1 (Homo sapiens (Human)) pIC50 for entry `O=C(NCC(F)(F)F)Nc1ccc(-c2cc(NC(=O)C3CC3)nc3[nH]ccc23)cc1` .
Key: 6.70 to 7.70

Exercise: Quote JAK1 (Homo sapiens (Human)) pIC50 for entry `N#CCNC(=O)c1ccc(-c2cc(NC(=O)C3CC3)nc3[nH]ccc23)cc1F` .
Key: 6.70 to 7.70

Exercise: Quote JAK1 (Homo sapiens (Human)) pIC50 for entry `Cc1cc(NC(=O)NCC(F)(F)F)ccc1-c1cc(NC(=O)C2CC2)nc2[nH]ccc12` .
Key: 6.70 to 7.70

Exercise: Quote JAK1 (Homo sapiens (Human)) pIC50 for entry `O=C(Nc1cc(C2=CCN(C(=O)Cc3ccc(F)c(F)c3)CC2)c2cc[nH]c2n1)C1CC1` .
Key: 6.70 to 7.70

Exercise: Quote JAK1 (Homo sapiens (Human)) pIC50 for entry O=C(Nc1cc(-c2ccc(NS(=O)(=O)CC3CCOC3)c(F)c2)c2cc[nH]c2n1)C1CC1 (stereo not drawn) .
Key: > 7.70

Exercise: Quote JAK1 (Homo sapiens (Human)) pIC50 for entry `N#CCCCS(=O)(=O)Oc1ccc(-c2cc(NC(=O)C3CC3)nc3[nH]ccc23)cc1` .
Key: 6.70 to 7.70

Exercise: Quote JAK1 (Homo sapiens (Human)) pIC50 for entry `N#CCC(=O)N1CC(n2cc(-c3cc(NC(=O)C4CC4)nc4[nH]ccc34)cn2)C1` .
Key: 6.70 to 7.70

Exercise: Quote JAK1 (Homo sapiens (Human)) pIC50 for entry `CCCCNC(=S)Nc1ccc(-c2nc(NC(=O)C3CC3)nc3[nH]ccc23)cc1` .
Key: 6.70 to 7.70

These entries and their values trace back to patent US11524968B2.
